Target: KRAS G12C (GMPPNP-loaded) and cRAF (Ras-binding domain) interaction (Homo sapiens (Human), UniProt P01116, C118S/C51S/C80L/G12C)
Sequence (P01116 other isoform, or with tags, fused parts or gaps G12C/C51S/C80L/C118S): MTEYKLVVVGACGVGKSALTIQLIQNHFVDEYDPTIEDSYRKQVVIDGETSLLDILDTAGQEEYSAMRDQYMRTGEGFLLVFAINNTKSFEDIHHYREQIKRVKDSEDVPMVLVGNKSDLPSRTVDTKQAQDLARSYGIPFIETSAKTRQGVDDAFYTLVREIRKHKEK
Assay: Inhibition of KRAS G12C and cRAF binding (AlphaScreen)
Conditions: KRAS G12C loaded with GMPPNP, cRaf RBD, 2 hours preincubation; read-out: Raf-1 RBD K-Ras IC50
Description: Compounds were diluted in 100% DMSO and each compound concentration was spotted at 200 nl/well onto low volume, white 384 well plates. […] KRAS G12C was preloaded with the GTP analogue Guanosine 5′-[β,γ-imido]triphosphate (GMPPNP). […] IC50S were determined using nonlinear regression fit of [inhibitor] vs. response (4 parameters). […]
ENDPOINT_LABEL: IC50

N#CC[C@H]1CN(c2nc(OCC34CCCN3CCC4)nc3c(F)c(-c4cccc5ccc(F)c(Cl)c45)ncc23)CCN1C(=O)/C=C/CN1C[C@@H]2C[C@H]1CO2 [Compound 182] :: < 10 nM
N#CC[C@H]1CN(c2nc(OCC34CCCN3CCC4)nc3c(F)c(-c4cccc5cccc(Cl)c45)ncc23)CCN1C(=O)/C=C/CN1C[C@@H]2C[C@H]1CO2 [Compound 184] :: < 10 nM
N#CC[C@H]1CN(c2nc(OC[C@@]34CCCN3C[C@H](F)C4)nc3c(F)c(-c4nc(N)cc5cccc(F)c45)ncc23)CCN1C(=O)/C=C/CN1CCOCC1 [Compound 60] :: < 10 nM
C[C@H]1CN(C/C=C/C(=O)N2CCN(c3nc(OC[C@@]45CCCN4C[C@H](F)C5)nc4c(F)c(-c5cccc6ccc(F)c(Cl)c56)ncc34)C[C@@H]2CC#N)C[C@H](C)O1 [Example 75] :: < 10 nM
N#CC[C@H]1CN(c2nc(OCC34CCCN3CCC4)nc3c2CCN(c2cccc4cccc(Cl)c24)C3)CCN1C(=O)/C=C/c1nc(C2CC2)no1 [Compound 23] :: 10 to 100 nM

**Query** Find the recorded IC50 belonging to CO[C@H]1CCN(C/C=C/C(=O)N2CCN(c3nc(OC[C@@]45CCCN4C[C@H](F)C5)nc4c(F)c(-c5cccc(Cl)c5C(F)(F)F)ncc34)C[C@@H]2CC#N)C1 [Compound 309] and report it.
**Result** 10 to 100 nM

**Query** Find the recorded IC50 belonging to N#CC[C@H]1CN(c2nc(OC[C@@]34CCCN3C[C@H](F)C4)nc3c(F)c(-c4cccc5cccc(F)c45)ncc23)CCN1C(=O)/C=C/CN1C2COCC1C2 [Compound 248] and report it.
**Result** 10 to 100 nM

**Query** Find the recorded IC50 belonging to N#CC[C@H]1CN(c2nc(OC[C@@]34CCCN3C[C@H](F)C4)nc3c(F)c(-c4cccc(Cl)c4C(F)(F)F)ncc23)CCN1C(=O)/C=C/CN1CC2CC(C1)O2 [Compound 295] and report it.
**Result** < 10 nM

**Query** Find the recorded IC50 belonging to N#CC[C@H]1CN(c2nc(OC[C@@]34CCCN3C[C@H](F)C4)nc3c(F)c(-c4cccc5ccc(F)c(F)c45)ncc23)CCN1C(=O)/C=C/CN1C[C@H]2COC[C@H]2C1 [Compound 223] and report it.
**Result** < 10 nM

**Query** Find the recorded IC50 belonging to N#CC[C@H]1CN(c2nc(OC[C@@]34CCCN3C[C@H](F)C4)nc3c(F)c(-c4cccc5ccc(F)c(F)c45)ncc23)CCN1C(=O)/C=C/CN1C[C@H]2C[C@@H]1CO2 [Compound 218] and report it.
**Result** < 10 nM

**Query** Find the recorded IC50 belonging to CC(C)c1noc(/C=C/C(=O)N2CCN(c3nc(OC[C@]45CCCN4C[C@H](F)C5)nc4c(F)c(-c5cccc6ccc(F)c(Cl)c56)ncc34)C[C@@H]2CC#N)n1 [Compound 133] and report it.
**Result** 10 to 100 nM
